Tested on: M. mycetomatis genome strain MM55
assay_method_text: CLSI M38-A2 based in vitro susceptibility screening (XTT or resazurin), growth at fixed concentration
Format: cell-based, Madurella mycetomatis
applied_conditions: Madurella mycetomatis, 25 uM, replicate A; read-out: Percentage survival at 25um, 25 um A
Note to self: class labels come from recorded activity at 25 µM, ranges listed here: low class: < 80%; middle class: ≥ 80% and < 90%; high class: ≥ 90%

[
  {
    "molecule": "C[C@@]1(O)[C@H](O)[C@@H](CO)O[C@H]1n1ccc2c(N)ncnc21",
    "group_label": "high class"
  },
  {
    "molecule": "Cc1c[nH]c(=O)nc1NCc1ccccc1",
    "group_label": "high class"
  },
  {
    "molecule": "CCCCSc1nc(N)c2[nH]c(=O)c(=O)n(Cc3ccccc3)c2n1",
    "group_label": "high class"
  },
  {
    "molecule": "CN(C/C=C/C#CC(C)(C)C)Cc1cccc2ccccc12",
    "group_label": "high class"
  },
  {
    "molecule": "CC(=O)N1CCN(c2ccc(OCC3COC(Cn4ccnc4)(c4ccc(Cl)cc4Cl)O3)cc2)CC1 (stereo not shown) [MMV637533, Ketoconazole, reference compound]",
    "group_label": "low class"
  },
  {
    "molecule": "O=S(=O)(NCB(O)O)c1ccc(-c2nnn[nH]2)cc1C(F)(F)F",
    "group_label": "low class"
  },
  {
    "molecule": "CCOC(=O)N[C@@H]1CC[C@@H]2[C@@H](C1)C[C@H]1C(=O)O[C@H](C)[C@H]1[C@H]2/C=C/c1ccc(-c2cccc(F)c2)cn1",
    "group_label": "low class"
  },
  {
    "molecule": "OC[C@@H]1CC[C@H](n2cnc3c(O)ncnc32)O1",
    "group_label": "high class"
  },
  {
    "molecule": "Cc1ccc(Oc2ccccc2-c2csc(NC3=NCCCN3)n2)c(C)c1",
    "group_label": "low class"
  },
  {
    "molecule": "O=c1cc(NCCCN[C@@H]2CCOc3c(Br)cc(Br)cc32)[nH]c2ccsc12",
    "group_label": "high class"
  },
  {
    "molecule": "NC(=O)c1ccc(I)c([N+](=O)[O-])c1",
    "group_label": "high class"
  },
  {
    "molecule": "COc1ccc2c(c1OC)C(=O)OC2C1c2c(cc3c(c2OC)OCO3)CCN1C (stereo not shown)",
    "group_label": "middle class"
  },
  {
    "molecule": "CN1CCN(Cc2ccc(-c3cnc4[nH]cc(-c5ccc6[nH]ccc6c5)c4c3)cc2)CC1",
    "group_label": "low class"
  },
  {
    "molecule": "OB1OCc2cc(Cl)ccc21",
    "group_label": "low class"
  },
  {
    "molecule": "CCc1cc(CCC(=O)Nc2ccccc2O)c(=O)[nH]c1C",
    "group_label": "middle class"
  },
  {
    "molecule": "NC1(C(=O)O)CCP(=O)(O)CC1 (stereo not shown)",
    "group_label": "low class"
  },
  {
    "molecule": "O=C(O)c1ccc(-c2ccc(O[C@H]3O[C@H](CO)[C@@H](O)[C@H](O)[C@@H]3O)cc2)cc1",
    "group_label": "middle class"
  }
]

====

Entries and their activity at 100 µM
Tested on: M. mycetomatis genome strain MM55
assay_method_text: CLSI M38-A2 based in vitro susceptibility screening (XTT or resazurin), growth at fixed concentration
Format: cell-based, Madurella mycetomatis
applied_conditions: Madurella mycetomatis, 100 uM, mean; read-out: Percentage survival at 100um, 100 uM mean

[
  {
    "smiles_notation": "OB1OCc2c1ccc(Cl)c2F",
    "measure_unit": "%",
    "activity at 100 µM": 64.2
  },
  {
    "smiles_notation": "C[C@H]1[C@@H](c2cccc(C(F)(F)F)c2)OC(=O)N1C(=O)NCc1cncc2ccccc12",
    "measure_unit": "%",
    "activity at 100 µM": 36.1
  },
  {
    "smiles_notation": "O=C(N[C@H](Cc1cccc2ccccc12)C(=O)NCCc1c[nH]cn1)C1Cc2ccccc2C1",
    "measure_unit": "%",
    "activity at 100 µM": 67
  }
]

====

Test system: M. mycetomatis genome strain MM55
assay_method_text: CLSI M38-A2 based in vitro susceptibility screening (XTT or resazurin), growth at fixed concentration
Assay type: cell-based, Madurella mycetomatis
applied_conditions: Madurella mycetomatis, 100 uM, mean of three, M. mycetomatis MM55; read-out: Percentage survival at 100um, 100 uM mean

[
  {
    "compound": "Nc1cc(N)c2nc(-c3ccccc3)c(Nc3ccc(F)cc3)nc2c1",
    "activity at 100 µM [%]": 89.9
  },
  {
    "compound": "N#C/C(=C1/SC[C@@H](c2ccc(Cl)cc2Cl)S1)n1ccnc1 [MMV1782224, Luliconazole, reference compound]",
    "activity at 100 µM [%]": 6.85
  },
  {
    "compound": "O=c1cc(Nc2ccc3ccccc3c2)[nH]c(=O)[nH]1",
    "activity at 100 µM [%]": 86
  },
  {
    "compound": "CC(C)(C)c1cc(CCC(=O)N2CCC2)cc(C(C)(C)C)c1O",
    "activity at 100 µM [%]": 62.1
  }
]

====

Entries and their activity at 100 µM
Tested on: M. mycetomatis genome strain MM55
assay_method_text: CLSI M38-A2 based in vitro susceptibility screening (XTT or resazurin), growth at fixed concentration
Type: cell-based, Madurella mycetomatis
applied_conditions: Madurella mycetomatis, 100 uM, replicate 3, M. mycetomatis MM55; read-out: Percentage survival at 100um, 100 uM A (third replicate column)
outcome_measure: activity at 100 µM (%)

[
  {
    "molecule": "CCc1cc(O)c(Oc2cccnc2N)cc1F",
    "endpoint_result": 132
  },
  {
    "molecule": "O=S(=O)(Nc1cccc2cccnc12)c1ccccc1",
    "endpoint_result": 6.47
  },
  {
    "molecule": "CCC(C)(C)c1ccc(CC(C)CN2C[C@@H](C)O[C@@H](C)C2)cc1 (stereo partly drawn) [MMV1634358, Amorolfine, reference compound]",
    "endpoint_result": 23.6
  },
  {
    "molecule": "CC1(C)[C@H](C(=O)O)N2C(=O)C[C@H]2S1(=O)=O",
    "endpoint_result": 85.4
  },
  {
    "molecule": "C(=C\\c1nc2ccccc2[nH]1)/c1ccc2c(c1)OCO2",
    "endpoint_result": 64.2
  },
  {
    "molecule": "COc1ccc(NC(=O)CC2Sc3ncnn3C2=O)cc1 (stereo not drawn)",
    "endpoint_result": 108
  },
  {
    "molecule": "C=C(C)n1c(=O)n(Cc2ccccc2C)c2ccccc21",
    "endpoint_result": 4.84
  },
  {
    "molecule": "CCCC(=O)OCCc1ccccc1",
    "endpoint_result": 84.5
  },
  {
    "molecule": "CCCCC(CC)CNC(=N)NC(=N)NCCCCCCNC(=N)NC(=N)NCC(CC)CCCC (stereo not drawn) [MMV396785, Alexidine, reference compound]",
    "endpoint_result": 16.1
  },
  {
    "molecule": "Cc1nc(-c2ccc(C3N(C)c4ccc(F)cc4C(=O)N3c3ccccc3)s2)cs1 (stereo not drawn)",
    "endpoint_result": 70.8
  },
  {
    "molecule": "O=C(Nc1nnc(-c2ccccc2)o1)c1ccc(F)cc1",
    "endpoint_result": 1.43
  },
  {
    "molecule": "O=C(Nc1ccc(Cl)c(C(F)(F)F)c1)C(CCCl)C(=O)Nc1ccc(Cl)c(C(F)(F)F)c1",
    "endpoint_result": 51.8
  },
  {
    "molecule": "O=C(CCCC(F)(F)F)N1CCC(c2nc(-c3nccs3)no2)CC1",
    "endpoint_result": 94.8
  },
  {
    "molecule": "Nc1cc(N)c2nc(-c3ccccc3)c(Nc3ccc(F)cc3)nc2c1",
    "endpoint_result": 73.1
  },
  {
    "molecule": "CC(C)=CCC/C(C)=C/CNCCNC1C2CC3CC(C2)CC1C3 (stereo not drawn)",
    "endpoint_result": 0.477
  },
  {
    "molecule": "O=[N+]([O-])c1ccc2c(CCc3c[nH]c4ccccc34)c[nH]c2c1",
    "endpoint_result": 7.7
  },
  {
    "molecule": "CC(C)(C)c1ccc(OCCn2nc(C(=O)O)c3ccccc3c2=O)cc1",
    "endpoint_result": 81.3
  },
  {
    "molecule": "CSC[C@H]1CN(Cc2c[nH]c3c(N)ncnc23)C[C@@H]1O",
    "endpoint_result": 91.9
  }
]
